System: A549 non-small cell lung carcinoma cells
experimental.protocol: Anti-proliferative assay, cell-titre luminescent reagent, 72 h (GVK-BIO)
Format: cell-based
measurement.context: Homo sapiens, A549, 72 h, 30, 10, 3, 1, 0.3 and 0.1 μM, nonlinear regression (Table 5), read-out: IC50/μM Lung (NSLC) A549
Reported values of IC50 for individual entries
Hi! Could you send only the number? It should be in µM, unit omitted.

Illustrative cases are given below, each with its answer.
In [3]: df
Out[3]:
                      smiles_representation  reading
0  COc1cccc(NC(=O)c2ccc(Oc3ccc4c(ccn4CCCN(C)C)c3)cc2)c1      8.3
1  COc1ccc(CCN2CCN(Cc3ccc4c(c3)c(C)c(C)n4CCCN3CCN(C)CC3)CC2)cc1      5.5
2  COc1cccc(NC(=O)c2cccc(Oc3ccc4c(c3)c(C)c(C)n4CCCN(C)C)c2)c1      4.6

API: the following record is the query input.
query: For `Cc1c(C)n(CCCN(C)C)c2ccc(Cc3ccc(C(=O)Nc4ccc5c(c4)OCO5)cc3)cc12` , write its IC50.
result: 6

###

Test system: SK-N-SH neuroblastoma cells
experimental.protocol: Anti-proliferative assay, cell-titre luminescent reagent, 72 h (GVK-BIO)
Type: cell-based
measurement.context: Homo sapiens, SK-N-SH, 30, 10, 3, 1, 0.3 and 0.1 μM, nonlinear regression (Table 5)
Reported values of IC50 for individual entries
Hi! Could you send only the number? It should be in µM, unit omitted.

Illustrative cases are given below, each with its answer.
                      smiles_representation  readout_type  units_text  reading
0  Cc1c(C)n(CCCN2CCN(C)CC2)c2ccc(CN3CCN(CCc4ccc5c(c4)OCO5)CC3)cc12          IC50          µM      1.7
1  CN(C)CCCn1ccc2cc(Oc3ccc(C(=O)Nc4ccccc4)cc3)ccc21          IC50          µM      3.2
2  COc1cccc(NC(=O)c2ccc(Oc3ccc4c(ccn4CCCN(C)C)c3)cc2)c1          IC50          µM     13.8
3  COc1ccc(CCN2CCN(Cc3ccc4c(c3)c(C)c(C)n4CCCN3CCN(C)CC3)CC2)cc1          IC50          µM      3.4
4  COc1ccc(NC(=O)c2ccc(Cc3ccc4c(c3)c(C)c(C)n4CCCN(C)C)cc2)cc1          IC50          µM      3.3

API: the following record is the query input.
query: For `Cc1c(C)n(CCCN(C)C)c2ccc(Oc3cccc(C(=O)Nc4ccccc4)c3)cc12` , write its IC50.
result: 5.4

###

System: CaCo2 colorectal cancer cells
experimental.protocol: Anti-proliferative assay, cell-titre luminescent reagent, 72 h (GVK-BIO)
Assay type: cell-based
measurement.context: Homo sapiens, Caco-2, 72 h, 30, 3, 0.3 and 0.03 μM, linear regression (Tables 2-4)
Using IC50 as the sorting value, the categories are c1 (below 3 µM), c2 (3 µM to below 5 µM), c3 (5 µM or more)

For orientation, consider the following solved cases.
                      smiles_representation  assigned_category
0  Cc1c(C)n(CCCN(C)C)c2ccc(C(=O)N3CCN(CCc4ccccc4)CC3)cc12                 c3
1  Cc1c(C)n(CCCN(C)C)c2ccc(Oc3cccc(C(=O)Nc4ccc(F)cc4)c3)cc12                 c2
2  CN(C)CCCn1ccc2cc(Oc3ccc(C(=O)Nc4ccc(F)cc4)cc3)ccc21                 c2
3  COc1ccc(NC(=O)c2cccc(Nc3ccc4c(ccn4CCCN(C)C)c3)c2)cc1                 c3
4  Cc1c(C)n(CCCN(C)C)c2ccc(Nc3ccc(C(=O)Nc4ccc5c(c4)OCO5)cc3)cc12                 c1
5  COc1ccc(NC(=O)c2ccc(Nc3ccc4c(c3)c(C)c(C)n4CCCN(C)C)cc2)cc1                 c1
6  Cc1c(C)n(CCCN(C)C)c2ccc(Nc3ccc(C(=O)Nc4ccccc4)cc3)cc12                 c2
7  Cc1c(C)n(CCCN(C)C)c2ccc(C(=O)N3CCN(CCc4ccc(F)cc4)CC3)cc12                 c3
8  COc1ccc(NC(=O)c2cccc(Oc3ccc4c(ccn4CCCN(C)C)c3)c2)cc1                 c3
9  Cc1c(C)n(CCCN2CCN(C)CC2)c2ccc(C(=O)N3CCN(CCc4ccccc4)CC3)cc12                 c3

query: Sort into band: `CN(C)CCCn1ccc2cc(Cc3ccc(C(=O)Nc4ccc5c(c4)OCO5)cc3)ccc21`
result: c3

query: Sort into band: `CN(C)CCCn1ccc2cc(Nc3ccc(C(=O)Nc4cccc(F)c4)cc3)ccc21`
result: c3

query: Sort into band: `CN(C)CCCn1ccc2cc(Oc3cccc(C(=O)Nc4ccc(F)cc4)c3)ccc21`
result: c2

query: Sort into band: `CN(C)CCCn1ccc2cc(Oc3cccc(C(=O)Nc4ccc5c(c4)OCO5)c3)ccc21`
result: c3

query: Sort into band: `CN(C)CCCn1ccc2cc(Nc3ccc(C(=O)Nc4ccccc4)cc3)ccc21`
result: c3

query: Sort into band: `Cc1c(C)n(CCCN(C)C)c2ccc(Nc3cccc(C(=O)Nc4ccc(F)cc4)c3)cc12`
result: c1

query: Sort into band: `Cc1c(C)n(CCCN2CCN(C)CC2)c2ccc(C(=O)N3CCN(CCc4ccc(F)cc4)CC3)cc12`
result: c3

query: Sort into band: `CN(C)CCCn1ccc2cc(Cc3cccc(C(=O)Nc4cccc(F)c4)c3)ccc21`
result: c3

query: Sort into band: `CN(C)CCCn1ccc2cc(Nc3ccc(C(=O)Nc4ccc5c(c4)OCO5)cc3)ccc21`
result: c3

query: Sort into band: `Cc1c(C)n(CCCN(C)C)c2ccc(Oc3ccc(C(=O)Nc4ccc(F)cc4)cc3)cc12`
result: c1

query: Sort into band: `COc1cccc(NC(=O)c2cccc(Nc3ccc4c(c3)c(C)c(C)n4CCCN(C)C)c2)c1`
result: c1

###

Test system: A549 non-small cell lung carcinoma cells
experimental.protocol: Anti-proliferative assay, cell-titre luminescent reagent, 72 h (GVK-BIO)
Type: cell-based
measurement.context: Homo sapiens, A549, 72 h, 30, 10, 3, 1, 0.3 and 0.1 μM, nonlinear regression (Table 5), read-out: IC50/μM Lung (NSLC) A549
So basically: is IC50 under 6 µM? Then yes (1). Not under? Then no (0).

For orientation, consider the following solved cases.
In [3]: df
Out[3]:
                                   compound  assigned_category
0  CN(C)CCCn1ccc2cc(Oc3ccc(C(=O)Nc4cccc(F)c4)cc3)ccc21 [Compound 4091]             no (0)
1  COc1cccc(NC(=O)c2ccc(Cc3ccc4c(c3)c(C)c(C)n4CCCN(C)C)cc2)c1 [Compound 4086]            yes (1)

Switching to the query record.
query: IC50 strictly < 6 µM for this compound? COc1ccc(NC(=O)c2ccc(Oc3ccc4c(c3)c(C)c(C)n4CCCN(C)C)cc2)cc1 [Compound 4094]
result: yes (1)

###

Tested on: SK-Mel-28 melanoma cells
experimental.protocol: Anti-proliferative assay, cell-titre luminescent reagent, 72 h (GVK-BIO)
Format: cell-based
measurement.context: Homo sapiens, SK-MEL-28, 72 h, 30, 3, 0.3 and 0.03 μM, linear regression (Tables 2-4)
So basically: is IC50 under 4 µM? Then TRUE. Not under? Then FALSE.

>>> print(df.to_string())
                                   compound       experimental_system  assigned_category
0  CN(C)CCCn1ccc2cc(Cc3ccc(C(=O)Nc4ccc5c(c4)OCO5)cc3)ccc21 [Compound 4079]  SK-Mel-28 melanoma cells               TRUE

query: IC50 strictly < 4 µM for this compound? Cc1c(C)n(CCCN2CCN(C)CC2)c2ccc(C(=O)N3CCN(CCc4ccc(F)cc4)CC3)cc12 [Compound 4120]
result: FALSE

query: IC50 strictly < 4 µM for this compound? Cc1c(C)n(CCCN(C)C)c2ccc(Cc3cccc(C(=O)Nc4ccccc4)c3)cc12 [Compound 4055]
result: FALSE

query: IC50 strictly < 4 µM for this compound? COc1cccc(NC(=O)c2ccc(Nc3ccc4c(c3)c(C)c(C)n4CCCN(C)C)cc2)c1 [Compound 4108]
result: TRUE

###

Test system: SK-Mel-28 melanoma cells
experimental.protocol: Anti-proliferative assay, cell-titre luminescent reagent, 72 h (GVK-BIO)
Assay type: cell-based
measurement.context: Homo sapiens, SK-MEL-28, 72 h, 30, 3, 0.3 and 0.03 μM, linear regression (Tables 2-4)
Reported values of IC50 for individual entries
Hi! Could you send only the number? It should be in µM, unit omitted.

Illustrative cases are given below, each with its answer.
>>> print(df.to_string())
                      smiles_representation  reading
0  Cc1c(C)n(CCCN(C)C)c2ccc(Oc3ccc(C(=O)Nc4ccc(F)cc4)cc3)cc12      0.9
1  Cc1c(C)n(CCCN(C)C)c2ccc(Nc3cccc(C(=O)Nc4ccccc4)c3)cc12      6.1
2  COc1ccc(NC(=O)c2ccc(Nc3ccc4c(ccn4CCCN(C)C)c3)cc2)cc1      2.5

API: the following record is the query input.
query: GET IC50 | system: SK-Mel-28 melanoma cells | item: `CN(C)CCCn1ccc2cc(Oc3cccc(C(=O)Nc4ccc5c(c4)OCO5)c3)ccc21`
result: 2.7
